target: Adenosine receptor A1 (Homo sapiens) (UniProt P30542); assay: Inhibition of [3H]NECA binding to human recombinant adenosine A1 receptor expressed in CHO cells at 10 uM after 60 mins by liquid scintillation counting; type: cell-based
Sequence (P30542 whole entry): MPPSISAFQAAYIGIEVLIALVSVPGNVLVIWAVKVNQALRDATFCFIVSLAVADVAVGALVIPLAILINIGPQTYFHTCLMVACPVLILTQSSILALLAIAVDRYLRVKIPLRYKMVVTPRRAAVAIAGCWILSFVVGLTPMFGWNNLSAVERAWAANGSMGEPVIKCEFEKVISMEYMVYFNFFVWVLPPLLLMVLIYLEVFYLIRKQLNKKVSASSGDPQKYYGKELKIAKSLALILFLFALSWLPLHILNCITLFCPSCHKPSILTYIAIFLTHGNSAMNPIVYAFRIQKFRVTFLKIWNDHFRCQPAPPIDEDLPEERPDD
// label = Fulfilled if inhibition is not less than 20%, otherwise Not fulfilled

See these solved cases before continuing.
1) CNC(=O)[C@]12C[C@@H]1[C@@H](n1cnc3c(NCc4cccc(Cl)c4)nc(C#CCCC(=O)NCCNC(=O)CCCC[C@H]4SC[C@H]5NC(=O)N[C@H]54)nc31)[C@H](O)[C@@H]2O : Not fulfilled
2) CNC(=O)[C@]12C[C@@H]1[C@@H](n1cnc3c(NCc4cccc(Cl)c4)nc(C#CCCC(=O)NCCNC(=O)CCCCCNC(=O)CCCC[C@H]4SC[C@H]5NC(=O)N[C@H]54)nc31)[C@H](O)[C@@H]2O : Not fulfilled
3) CNC(=O)[C@]12C[C@@H]1[C@@H](n1cnc3c(NCc4cccc(Cl)c4)nc(C#CCCC(=O)OC)nc31)[C@H](O)[C@@H]2O : Fulfilled

Now, please, on to the next compound.
Say whether `CNC(=O)[C@]12C[C@@H]1[C@@H](n1cnc3c(NCc4cccc(Cl)c4)nc(C#CCCCCC(=O)NCCN)nc31)[C@H](O)[C@@H]2O` shows inhibition of 20% or more.
Fulfilled
